Origin of measurements: patent EP4778922A1

AUC(0-inf) listing for selected molecules.
run-description: Mouse pharmacokinetic test
Assay type: in vivo, ICR mice
conditions-used: plasma, iv, 0.5 mg/kg, IV-0.5mpk
The reply should be a number in ng·h/mL, with the unit left off.

CC(C)(c1ccc(-c2ccc(OCc3ccc(-c4cnc(P(C)(C)=O)nc4)cc3)cc2)cc1)c1cc(Cl)c(OCCCl)c(C#N)c1 [Compound 136] : 17100
CC(C)(c1ccc(-c2ccc(OCc3ccnc(N4CC(S(C)(=O)=O)C4)n3)cn2)cc1)c1cc(Cl)c(OCCCl)c(C#N)c1 [Compound 85] : 13700
CC(C)(c1ccc(-c2ccc(OCc3ccnc(N4CC(S(C)(=O)=O)C4)n3)nc2)cc1)c1cc(Cl)c(OCCCl)c(C#N)c1 [Compound 207] : 7610
CC(C)(c1ccc(-c2ccc(C#Cc3cnc(P(C)(C)=O)nc3)cc2)cc1)c1cc(Cl)c(OCCCl)c(C#N)c1 [Compound 109] : 15500
CC(C)(c1ccc(-c2ccc(OCc3ccnc(P(C)(C)=O)n3)nc2)cc1)c1cc(Cl)c(OCCCl)c(C#N)c1 [Compound 17] : 7590

What does the data say about its AUC(0-inf)? Entry: CC(C)(c1ccc(-c2ccc3oc(-c4ccnc(P(C)(C)=O)n4)c(N)c3c2)cc1)c1cc(Cl)c(OCCCl)c(C#N)c1 [Compound 56] 8300

What does the data say about its AUC(0-inf)? Entry: CC(C)(c1ccc(-c2ccc(OCc3ccnc(N4CC(S(C)(=O)=O)C4)n3)cc2)cc1)c1cc(Cl)c(OCCCl)c(C#N)c1 [Compound 53] 10200

What does the data say about its AUC(0-inf)? Entry: CC(C)(c1ccc(-c2cnc(OCc3ccnc(N4CC(S(C)(=O)=O)C4)n3)cn2)cc1)c1cc(Cl)c(OCCCl)c(C#N)c1 [Compound 262] 15200

What does the data say about its AUC(0-inf)? Entry: CC(C)(c1ccc(-c2ccc(OCc3ccnc(P(C)(C)=O)n3)cc2)cc1)c1cc(Cl)c(OCCCl)c(C#N)c1 [Compound 2] 7650

====

run-description: Mouse pharmacokinetic test
Type: in vivo, ICR mice
conditions-used: plasma, po, 30 mg/kg, PO-30mpk
Param threshold (500 min) applies to half-life; output 1.0 when value >= threshold, 0.0 when value < threshold.

Field: example entries. Status: answers known.
CC(C)(c1ccc(-c2ccc(/C=C/c3cnc(P(C)(C)=O)nc3)cc2)cc1)c1cc(Cl)c(OCCCl)c(C#N)c1 [Compound 234] : 1.0
CC(C)(c1ccc(-c2ccc(OCc3cccc(S(C)(=N)=O)n3)cc2)cc1)c1cc(Cl)c(OCCCl)c(C#N)c1 (stereo not shown) [Compound 188] : 0.0
CC(C)(c1ccc(-c2cnc(OCc3ccnc(N4CC5(CCS5(=O)=O)C4)n3)cn2)cc1)c1cc(Cl)c(OCCCl)c(C#N)c1 [Compound 376] : 1.0
CC(C)(c1ccc(-c2ccc(OCc3ccnc(N4CC(CS(C)(=O)=O)C4)n3)cc2)cc1)c1cc(Cl)c(OCCCl)c(C#N)c1 [Compound 175] : 1.0

In plain terms: is recorded half-life at least 500 min for CC(C)(c1ccc(-c2ccc(OCc3ccnc(N=S4(=O)CCCC4)n3)cc2)cc1)c1cnc2c(cnn2CCCl)c1 [Compound 46] ? 0.0

In plain terms: is recorded half-life at least 500 min for CC(C)(c1ccc(-c2ccc(OCc3ccnc(N4CC5(CCS5(=O)=O)C4)n3)cc2)cc1)c1cc(Cl)c(OCCCl)c(C#N)c1 [Compound 176] ? 1.0

In plain terms: is recorded half-life at least 500 min for COc1c(Cl)cc(C(C)(C)c2ccc(-c3ccc(OCc4ccnc(P(C)(C)=O)n4)cc3)cc2)cc1C#N [Compound 237] ? 0.0

In plain terms: is recorded half-life at least 500 min for CC(C)(c1ccc(-c2ccc(OCc3ccnc(N=S4(=O)CCOCC4)n3)cn2)cc1)c1cc(Cl)c(OCCCl)c(C#N)c1 [Compound 62] ? 0.0

In plain terms: is recorded half-life at least 500 min for CC(C)(c1ccc(-c2ccc(OC3CCN(c4ccnc(P(C)(C)=O)n4)CC3)nc2)cc1)c1cc(Cl)c(OCCCl)c(C#N)c1 [Compound 103] ? 0.0
